target: Sodium-dependent serotonin transporter (Rattus norvegicus)
Sequence (P31652 whole entry): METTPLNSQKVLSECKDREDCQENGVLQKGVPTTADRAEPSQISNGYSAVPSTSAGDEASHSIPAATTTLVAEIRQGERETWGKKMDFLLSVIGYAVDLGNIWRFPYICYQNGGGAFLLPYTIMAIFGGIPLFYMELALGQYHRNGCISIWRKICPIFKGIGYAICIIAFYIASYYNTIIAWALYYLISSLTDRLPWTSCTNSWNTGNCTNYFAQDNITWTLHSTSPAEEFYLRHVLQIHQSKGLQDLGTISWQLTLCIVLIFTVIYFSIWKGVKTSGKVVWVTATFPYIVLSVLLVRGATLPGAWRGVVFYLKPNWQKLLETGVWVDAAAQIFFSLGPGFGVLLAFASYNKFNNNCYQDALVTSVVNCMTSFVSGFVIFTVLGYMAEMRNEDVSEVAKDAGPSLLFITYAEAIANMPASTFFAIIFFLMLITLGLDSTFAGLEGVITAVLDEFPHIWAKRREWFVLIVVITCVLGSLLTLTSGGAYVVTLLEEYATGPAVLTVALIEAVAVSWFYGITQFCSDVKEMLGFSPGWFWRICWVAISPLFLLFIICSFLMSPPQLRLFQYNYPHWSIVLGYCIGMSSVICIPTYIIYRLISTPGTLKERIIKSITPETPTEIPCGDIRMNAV
test.description: Affinity at the 5-HT reuptake site labeled with [3H]paroxetine using rat frontal cortex membranes
Assay type: tissue-based, Membrane
pKi: −log10 of the molar value.
Please mark Met if the recorded pKi is equal to or greater than 9, and Not met if it falls below.

The following compounds have reported results that may help.
- substance.smiles: "COc1cccc2sc([C@H]3CCN(C[C@H](O)COc4cccc5[nH]c(C(N)=O)cc45)[C@@H](C)C3)cc12"
  target: "Sodium-dependent serotonin transporter (Rattus norvegicus)"
  label.class: "Not met"
- substance.smiles: "Cc1cc(C)c2cc([C@@H]3CCN(C[C@H](O)COc4cccc5[nH]c(C)cc45)[C@@H](C)C3)sc2c1"
  target: "Sodium-dependent serotonin transporter (Rattus norvegicus)"
  label.class: "Not met"
- substance.smiles: "COc1cccc2sc([C@H]3C[C@H]4CC[C@@H](C3)N4C[C@H](O)COc3cccc4[nH]ccc34)cc12"
  target: "Sodium-dependent serotonin transporter (Rattus norvegicus)"
  label.class: "Met"

*Q* Reported pKi reaches at least 9 for `COc1cccc2sc([C@@H]3CCN(C[C@H](O)COc4cccc5oc(C)cc45)[C@@H](C)C3)cc12` ?
*A* Not met
